molecular target: Substance-P receptor (Homo sapiens); experiment: Binding affinity of compound was determined from inhibition of [125I]- substance P binding to the hNK1 receptor in CHO cells
Sequence (P25103 whole entry): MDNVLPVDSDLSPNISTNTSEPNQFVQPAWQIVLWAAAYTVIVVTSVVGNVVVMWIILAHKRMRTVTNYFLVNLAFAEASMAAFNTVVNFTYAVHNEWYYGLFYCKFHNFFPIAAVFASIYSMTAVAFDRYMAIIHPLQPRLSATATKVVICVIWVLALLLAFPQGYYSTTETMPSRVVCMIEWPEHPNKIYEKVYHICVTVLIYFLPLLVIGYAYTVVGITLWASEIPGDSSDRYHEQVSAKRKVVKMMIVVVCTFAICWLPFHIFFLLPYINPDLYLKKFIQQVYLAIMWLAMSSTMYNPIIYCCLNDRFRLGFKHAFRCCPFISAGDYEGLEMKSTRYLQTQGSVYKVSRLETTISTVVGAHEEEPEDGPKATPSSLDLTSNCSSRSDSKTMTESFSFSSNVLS
pIC50: −log10 of the molar value.
The threshold is inclusive: pIC50 of exactly 7 counts as TRUE; values below receive FALSE.

Past entries and their recorded results:
Compound: Cc1cc(C)cc(COC[C@@H](N)c2ccccc2)c1
Cat: TRUE

Compound: Cc1cc(C)cc(COCC(N)Cc2ccccc2)c1 (configuration not stated)
Cat: FALSE

Compound: Cc1cc(C)cc(COCC(N)Cc2cccc3ccccc23)c1 (configuration not stated)
Cat: FALSE

Compound: Cc1cc(C)cc(COC[C@H](N)c2ccccc2)c1
Cat: FALSE

Shifting focus to the compound that follows.
Prompt: Decide: pIC50 of Cc1cc(C)cc(COCC(N)C(c2ccccc2)c2ccccc2)c1 (configuration not stated) >= 7?
Completion: TRUE
